tested on: Mycolicibacterium fortuitum; experiment: Anti-bacterial activity tested against Mycobacterium fortuitum (ATCG 6841); assay type: functional
Measurement kind: MIC (µg/mL)

Here's what some known entries look like.
Compound | Measurement kind | Unit descriptor | Measured
CN(C)CC1CCN(c2cc3c(cc2F)c(=O)c(C(=O)O)cn3C2CC2)C1 (stereo not given) | MIC | µg/mL | 0.13
CCN1CCN(c2cc3c(cc2F)c(=O)c(C(=O)O)cn3C2CC2)CC1 | MIC | µg/mL | 0.06
CC1CN(c2cc3c(cc2F)c(=O)c(C(=O)O)cn3C(C)C)CC(C)N1 (stereo not given) | MIC | µg/mL | 0.5
CNCC1CCN(c2cc3c(cc2F)c(=O)c(C(=O)O)cn3-c2ccc(F)cc2F)C1 (stereo not given) | MIC | µg/mL | 0.13
CC1CN(c2cc3c(cc2F)c(=O)c(C(=O)O)cn3-c2ccc(F)cc2F)CCN1 (stereo not given) | MIC | µg/mL | 0.13
CC1CN(c2cc3c(cc2F)c(=O)c(C(=O)O)cn3C2CCC2)CCN1 (stereo not given) | MIC | µg/mL | 0.25

A = CCNCC1CCN(c2cc3c(cc2F)c(=O)c(C(=O)O)cn3-c2ccc(F)cc2F)C1 (stereo not given)
B = CCn1cc(C(=O)O)c(=O)c2cc(F)c(N3CCC(N)C3)cc21 (stereo not given)
C = NC1CCN(c2cc3c(cc2F)c(=O)c(C(=O)O)cn3-c2ccc(F)cc2F)C1 (stereo not given)
D = CNCC1CCN(c2cc3c(cc2F)c(=O)c(C(=O)O)cn3C(C)C)C1 (stereo not given)
Exercise: Arrange the 4 compounds by rising MIC, starting with the smallest. API: response body holds the labels in the requested order.
Solution: C, A, B, D

a = CC(C)N1CCN(c2cc3c(cc2F)c(=O)c(C(=O)O)cn3-c2ccc(F)cc2F)CC1
b = CCN1CCN(c2cc3c(cc2F)c(=O)c(C(=O)O)cn3C(C)C)CC1
c = CCn1cc(C(=O)O)c(=O)c2cc(F)c(N3CCC(CNC)C3)cc21 (stereo not given)
Exercise: List items by MIC in falling order. Your reply should list the labels following the order given in the request.
Solution: c, b, a
(c: 2 µg/mL, b: 1 µg/mL, a: 0.5 µg/mL)

A = CC1CN(c2cc3c(cc2F)c(=O)c(C(=O)O)cn3C2CCC2)CC(C)N1 (stereo not given)
B = CCn1cc(C(=O)O)c(=O)c2cc(F)c(N3CCNC(C)C3)cc21 (stereo not given)
Exercise: # compare MIC for A vs B ; return the one with the smaller value Kindly give the label for the entry you pick.
Solution: A

====

test system: Streptococcus pyogenes; assay: Anti-bacterial activity tested against Gram-positive SP1-1 bacterium; assay type: functional
Measurement kind: MIC (µg/mL)

Below, each entry is followed by its recorded MIC result.
Compound | System name | MIC / µg/mL
NC1CCN(c2cc3c(cc2F)c(=O)c(C(=O)O)cn3-c2ccc(F)cc2F)C1 (stereo not given) | Streptococcus pyogenes | 0.1
CN(C)CC1CCN(c2cc3c(cc2F)c(=O)c(C(=O)O)cn3C2CC2)C1 (stereo not given) | Streptococcus pyogenes | 0.2
CC(C)N1CCN(c2cc3c(cc2F)c(=O)c(C(=O)O)cn3-c2ccc(F)cc2F)CC1 | Streptococcus pyogenes | 3.1
CC(C)(C)n1cc(C(=O)O)c(=O)c2cc(F)c(N3CCC(N)C3)cc21 (stereo not given) | Streptococcus pyogenes | 0.4
CNCC1CCN(c2cc3c(cc2F)c(=O)c(C(=O)O)cn3C2CC2)C1 (stereo not given) | Streptococcus pyogenes | 0.1
O=C(O)c1cn(C2CC2)c2cc(N3CCNCC3)c(F)cc2c1=O | Streptococcus pyogenes | 0.4
CCN1CCN(c2cc3c(cc2F)c(=O)c(C(=O)O)cn3-c2ccc(F)cc2F)CC1 | Streptococcus pyogenes | 0.8
CNCC1CCN(c2cc3c(cc2F)c(=O)c(C(=O)O)cn3C2CCC2)C1 (stereo not given) | Streptococcus pyogenes | 1.6

a = CNCC1CCN(c2cc3c(cc2F)c(=O)c(C(=O)O)cn3-c2ccc(F)cc2F)C1 (stereo not given)
b = CC(C)NCC1CCN(c2cc3c(cc2F)c(=O)c(C(=O)O)cn3C2CC2)C1 (stereo not given)
Exercise: Between a and b , which one has the lower reported MIC value? Output the label that corresponds to your choice.
Solution: a

A = CCC1CN(c2cc3c(cc2F)c(=O)c(C(=O)O)cn3C2CC2)CCN1 (stereo not given)
B = CNCC1CCN(c2cc3c(cc2F)c(=O)c(C(=O)O)cn3C(C)(C)C)C1 (stereo not given)
Exercise: Lab notebook, comparison: A versus B , higher MIC goes to which? // respond with label for picked entry
Solution: A
(A: 0.8 µg/mL, B: 0.2 µg/mL)

a = CN1CCN(c2cc3c(cc2F)c(=O)c(C(=O)O)cn3C2CC2)CC1
b = CCNCC1CCN(c2cc3c(cc2F)c(=O)c(C(=O)O)cn3-c2ccc(F)cc2F)C1 (stereo not given)
Exercise: // pick larger MIC from pair: a vs b # respond with the chosen item's label
Solution: a

====

system: Streptococcus pyogenes; assay: Anti-bacterial activity tested against Gram-positive SP1-1 bacterium; type: functional
Measurement kind: MIC (µg/mL)

Worked cases, MIC given:
Molecule | Unit descriptor | MIC
CCN1CCN(c2cc3c(cc2F)c(=O)c(C(=O)O)cn3C2CC2)CC1 | µg/mL | 0.8
O=C(O)c1cn(-c2ccc(F)cc2F)c2cc(N3CCNCC3)c(F)cc2c1=O | µg/mL | 0.4
CC(C)N1CCN(c2cc3c(cc2F)c(=O)c(C(=O)O)cn3C2CC2)CC1 | µg/mL | 0.8
CC(C)CN1CCN(c2cc3c(cc2F)c(=O)c(C(=O)O)cn3C2CC2)CC1 | µg/mL | 1.6

A = CC1CN(c2cc3c(cc2F)c(=O)c(C(=O)O)cn3-c2ccc(F)cc2F)CCN1 (stereo not given)
B = CCN1CCN(c2cc3c(cc2F)c(=O)c(C(=O)O)cn3CC)CC1
Exercise: From the recorded data, which exceeds the other in MIC: A or B ? Please indicate the selected item by its label.
Solution: B

====

test system: Streptococcus pyogenes; assay: Anti-bacterial activity tested against Gram-positive SP1-1 bacterium; type: functional
Measurement kind: MIC (µg/mL)

Compound | MIC, µg/mL
NC1CCN(c2cc3c(cc2F)c(=O)c(C(=O)O)cn3C2CC2)C1 (configuration not stated) | 0.8

A = CC1CN(c2cc3c(cc2F)c(=O)c(C(=O)O)cn3C2CC2)CCN1 (configuration not stated)
B = CN1CCN(c2cc3c(cc2F)c(=O)c(C(=O)O)cn3-c2ccc(F)cc2F)CC1
Exercise: Hi team, can someone confirm which has the larger MIC: A or B ? Thanks. Please indicate the selected item by its label.
Solution: B
(B: 1.6 µg/mL, A: 0.8 µg/mL)

====

tested on: Streptococcus pyogenes; assay: Anti-bacterial activity tested against Gram-positive SP1-1 bacterium; assay type: functional
Measurement kind: MIC (µg/mL)

# count of solved cases: 5
Molecule | Measured
CNCC1CCN(c2cc3c(cc2F)c(=O)c(C(=O)O)cn3C(C)C)C1 (stereo not given) | 3.1
CCCCN1CCN(c2cc3c(cc2F)c(=O)c(C(=O)O)cn3-c2ccc(F)cc2F)CC1 | 3.1
CC1CN(c2cc3c(cc2F)c(=O)c(C(=O)O)cn3-c2ccc(F)cc2F)CC(C)N1 (stereo not given) | 0.8
CCn1cc(C(=O)O)c(=O)c2cc(F)c(N3CCC(N)C3)cc21 (stereo not given) | 0.8
C[C@@H]1CN(c2c(F)c(N)c3c(=O)c(C(=O)O)cn(C4CC4)c3c2F)C[C@H](C)N1 [SPARFLOXACIN] | 0.1

P = CCn1cc(C(=O)O)c(=O)c2cc(F)c(N3CCC(CNC)C3)cc21 (stereo not given)
Q = CCNCC1CCN(c2cc3c(cc2F)c(=O)c(C(=O)O)cn3C2CC2)C1 (stereo not given)
Exercise: Endpoint returns whichever of P and Q has the numerically higher MIC. Returns: label corresponding to the selected item.
Solution: Q
(Q: 0.8 µg/mL, P: 0.4 µg/mL)

====

tested on: Mycolicibacterium fortuitum; assay: Anti-bacterial activity tested against Mycobacterium fortuitum (ATCG 6841); assay type: functional
Measurement kind: MIC (µg/mL)

Compound | MIC (µg/mL)
CC(C)NCC1CCN(c2cc3c(cc2F)c(=O)c(C(=O)O)cn3C2CC2)C1 (configuration not stated) | 0.25
CNCC1CCN(c2cc3c(cc2F)c(=O)c(C(=O)O)cn3C(C)(C)C)C1 (configuration not stated) | 0.13

1 = CCN1CCN(c2cc3c(cc2F)c(=O)c(C(=O)O)cn3C2CCC2)CC1
2 = CNCC1CCN(c2cc3c(cc2F)c(=O)c(C(=O)O)cn3C2CCC2)C1 (configuration not stated)
Exercise: Choose between 1 and 2 : whose measured MIC value is numerically larger? Bench note: the answer is the label of the chosen record.
Solution: 2
(2: 2 µg/mL, 1: 0.5 µg/mL)

a = CCC1CN(c2cc3c(cc2F)c(=O)c(C(=O)O)cn3-c2ccc(F)cc2F)CCN1 (configuration not stated)
b = CC(C)CN1CCN(c2cc3c(cc2F)c(=O)c(C(=O)O)cn3C2CC2)CC1
c = CC(C)(C)n1cc(C(=O)O)c(=O)c2cc(F)c(N3CCC(N)C3)cc21 (configuration not stated)
d = CCN1CCN(c2cc3c(cc2F)c(=O)c(C(=O)O)cn3-c2ccc(F)cc2F)CC1
Exercise: Arrange these 4 compounds in increasing order of MIC. Answer with the labels in sequence, matching the requested order.
Solution: c, a, d, b
